Where do these numbers come from? They come from paper PMC10397247.

# Target system: T1, 4H906-bA
# T1 chain: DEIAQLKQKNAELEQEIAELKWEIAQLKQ
# Experimental details: two-hybrid library CCNG1;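 further: natural log of median RNA to DNA barcode read ratio; higher means stronger binding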
Parameter interaction score: see the listing below.
Respond with the number and no other words.

Sample answers from the record:
DKNAQLEQENAELKQEIAELKWKIAQLEQ [4H3277-bA] | -0.838
DENAQLEQEIAELEQKNAELKWEIAQLEQ [4H1081-bA] | -0.875
DENAQLEQKNAELEQKIAELKWEIAQLEQ [4H1449-bA] | -0.904
DKNAQLKQEIAELEQKIAELKWKNAQLEQ [4H3631-bA] | -0.872
DKNAQLKQKIAELKQENAELEWKIAQLKQ [4H3926-bA] | -1.13
DENAQLKQEIAELEQEIAELEWKNAQLKQ [4H1544-bA] | -0.806

Would you kindly look at the next entry?
Tell me the measured interaction score of DKNAQLEQEIAELEQKNAELKWEIAQLEQ [4H3129-bA] , please. -0.839
